This collection of values is drawn from ChEMBL document CHEMBL3507680.

Assay Remarks: Human HepG2 cell viability assay in 384 well format
Format: toxicity, cell-based
Set-up: dose 125 nL, time 70.5 hour; concentration not given beside the values
Conditions: HepG2 cells, read-out: Inhibition
Measured cytotoxicity at 70.5 h, listed per entry.
Response body: numeric value in %, unit text excluded.

The cases that follow already have their cytotoxicity at 70.5 h on record.
Molecule | cytotoxicity at 70.5 h, %
CCc1ccccc1CNC(=O)NCc1cnn(C)c1 | -11.8
Cc1cccc(CN2CCn3c(COc4ncccn4)nnc3C2)n1 | 4.18
CC(=O)N1CCC2(CC1)CN(CC(C)C)CC21CCNC1=O (centres undefined) | 13.6

Form: molecule = NC(=O)c1cc(CC2CCCN(c3cnccn3)C2)ncn1 (centres undefined) ; cytotoxicity at 70.5 h = -6.16

Form: molecule = O=C(C1CC1)N1CCC2(CC1)CNc1ccc(F)cc12 ; cytotoxicity at 70.5 h = -10.9

Form: molecule = CC(NC(=O)CN(C)S(C)(=O)=O)c1nnc2n1CCCCC2 (centres undefined) ; cytotoxicity at 70.5 h = 48.1

Form: molecule = CN(C)C(=O)N1C[C@H]2CCC[C@@]2(COc2ccccn2)C1 ; cytotoxicity at 70.5 h = -8.44

Form: molecule = CC(Nc1cccc(CN2CCOC2=O)c1)C(=O)NC(=O)NC(C)(C)C (centres undefined) ; cytotoxicity at 70.5 h = -16.7

Form: molecule = CC1CN(C)CCN1C(=O)c1cnc2c(cnn2C2CCCC2)c1 (centres undefined) ; cytotoxicity at 70.5 h = -2.54

====

Assay Remarks: Human HepG2 cell viability assay in 384 well format
Assay type: toxicity, cell-based
Design: dose 125 nL, time 70.5 hour; concentration not given beside the values
Conditions: HepG2 cells, read-out: Inhibition
Measured cytotoxicity at 70.5 h, listed per entry.
Response body: numeric value in %, unit text excluded.

The cases that follow already have their cytotoxicity at 70.5 h on record.
Compound | Uom | cytotoxicity at 70.5 h
Cc1cc(-c2cnc(N3CCNC(=O)C3)nc2-c2ccncc2)on1 | % | 7.7
CCn1nnnc1-c1cccc(NCc2nc(C)ccc2O)c1 | % | -6.25

Form: compound = Cc1ccc(C(=O)Nc2cc(C(N)=O)ccc2N2CCCCC2)cc1F ; cytotoxicity at 70.5 h = -2.35

Form: compound = COC(=O)C1CCN(C(=O)Cn2ccc(-c3ccc(F)cc3)n2)CC1 ; cytotoxicity at 70.5 h = -8.67

Form: compound = CCn1c(C)nnc1SCCNC(=O)c1cnc(N(C)C)nc1C ; cytotoxicity at 70.5 h = -2.09

Form: compound = CC(C)OCCN1CCN(C(=O)c2cc(-n3cccn3)ccn2)CC1 ; cytotoxicity at 70.5 h = -4.55

Form: compound = CCSCc1nc(O)c2nnn(C3CCN(Cc4ccoc4)CC3)c2n1 ; cytotoxicity at 70.5 h = -14.9

Form: compound = CCN1CCC2(CCC1=O)CN(C1CCOCC1)CCN2C (stereo not drawn) ; cytotoxicity at 70.5 h = -6.68

Form: compound = CCOCCS(=O)(=O)N(CC)Cc1ccc(Cl)s1 ; cytotoxicity at 70.5 h = -11.4

Form: compound = O=C(NCCN1CCOCC1)c1cc(-c2ccc(Cl)s2)[nH]n1 ; cytotoxicity at 70.5 h = -1.44

Form: compound = CC(C)c1ccc(O)c(C(=O)NC2CCN(c3ncccn3)CC2)c1 ; cytotoxicity at 70.5 h = -19.5

Form: compound = COc1ccc(CNc2cccnc2-n2cccn2)c(OC)c1OC ; cytotoxicity at 70.5 h = -11.5

Form: compound = COc1cc(C#N)ccc1OCC(=O)NS(=O)(=O)c1ccccc1 ; cytotoxicity at 70.5 h = -7.96

Form: compound = NC(=O)CCN(CC(=O)NCc1ccccn1)c1ccc(F)cc1 ; cytotoxicity at 70.5 h = -9.69

Form: compound = Cc1ccc([C@@H]2CN(S(=O)(=O)Cc3ccccc3)C[C@H]2N(C)C)cc1 ; cytotoxicity at 70.5 h = 1.88

====

Assay Remarks: Human HepG2 cell viability assay in 384 well format
Format: toxicity, cell-based
Parameters: dose 125 nL, time 70.5 hour; concentration not given beside the values
Conditions: HepG2 cells, read-out: Inhibition
Readout Kind: cytotoxicity at 70.5 h (%)
Response body: numeric value in %, unit text excluded.

Molecule | cytotoxicity at 70.5 h / %
Cc1cccc(OCCC(=O)NC(C)c2nnc3n2CCC3)c1 (stereo not drawn) | 2.23
CN(Cc1ccc(-n2cccn2)cc1)c1cc(N)nc(N)n1 | 18.4
COCCNC(=O)Nc1ccc(F)c(C(N)=O)c1 | -6.9
c1ccc(CN2CCN(c3ccc4nncn4n3)CC2)nc1 | -9.47

Form: molecule = O=C(NC[C@H]1OC[C@@H](NCc2ccccn2)[C@@H]1O)c1ccc(F)cc1 ; cytotoxicity at 70.5 h = 2.33

Form: molecule = COCCN1CC[C@@H](OC)[C@@H]1Cc1ccccc1 ; cytotoxicity at 70.5 h = 15.6

Form: molecule = Cc1ccc(CNC(=O)COc2ccc3c(c2)OCC3O)cc1 (stereo not drawn) ; cytotoxicity at 70.5 h = -7.79

Form: molecule = FC(F)(F)c1ccc2[nH]c([C@H]3CCNC3)nc2c1 ; cytotoxicity at 70.5 h = -2.06

====

Measured cytotoxicity at 70.5 h, listed per entry.
Assay Remarks: Human HepG2 cell viability assay in 384 well format
Assay type: toxicity, cell-based
Design: dose 125 nL, time 70.5 hour; concentration not given beside the values
Conditions: HepG2 cells, read-out: Inhibition
Response body: numeric value in %, unit text excluded.

Form: molecule = Cc1nc(-c2ccc(Cl)s2)sc1C(=O)NC(C)(C)C(N)=O ; cytotoxicity at 70.5 h = -4.82

====

Assay Remarks: Human HepG2 cell viability assay in 384 well format
Assay type: toxicity, cell-based
Parameters: dose 125 nL, time 70.5 hour; concentration not given beside the values
Conditions: HepG2 cells, read-out: Inhibition
Readout Kind: cytotoxicity at 70.5 h (%)
Response body: numeric value in %, unit text excluded.

Form: molecule = CCc1ccc(S(=O)(=O)N2Cc3c(CN(C)C)nn(C)c3C2)cc1 ; cytotoxicity at 70.5 h = -5.86

Form: molecule = Fc1ccc(CN2CCC(c3noc(-c4cnccn4)n3)CC2)cc1F ; cytotoxicity at 70.5 h = -1.05

Form: molecule = CN(C)C(=O)C1CN(c2ncccn2)CCN1C (configuration not stated) ; cytotoxicity at 70.5 h = -1.97

Form: molecule = CC(=O)N1CCC(Oc2ccc(Cl)cn2)CC1 ; cytotoxicity at 70.5 h = 0.563

====

Measured cytotoxicity at 70.5 h, listed per entry.
Assay Remarks: Human HepG2 cell viability assay in 384 well format
Type: toxicity, cell-based
Parameters: dose 125 nL, time 70.5 hour; concentration not given beside the values
Conditions: HepG2 cells, read-out: Inhibition
Response body: numeric value in %, unit text excluded.

The cases that follow already have their cytotoxicity at 70.5 h on record.
Compound | Uom | cytotoxicity at 70.5 h
CCc1nc(C2CCCN2C(=O)c2csc(COC)n2)no1 (configuration not stated) | % | -0.0198
Cc1noc(C)c1-c1ccc(C2CCCN2CCC(N)=O)nc1 (configuration not stated) | % | -3.28
O=C([C@H]1C[C@H]2OCC[C@H]2N(CC2CCOCC2)C1)N1CCCC1 | % | -2.01
CC(C)N1CCC(CNCc2c[nH]nc2C(C)(C)C)C1 (configuration not stated) | % | -0.871
CC(c1ccncc1)N(C)C(=O)NCCOc1ccc(C#N)cc1 (configuration not stated) | % | 16.9

Form: compound = COc1ccc2c(C)c(C(=O)N3CCC(NC(C)=O)C3)oc2c1 (configuration not stated) ; cytotoxicity at 70.5 h = -3.36

Form: compound = CN(C)S(=O)(=O)NCC1OCCc2cn(CC3CCOCC3)nc21 (configuration not stated) ; cytotoxicity at 70.5 h = 13.8

Form: compound = CC(C)N1CCn2c(nc3cc(C(N)=O)ccc32)C1 ; cytotoxicity at 70.5 h = -16.5

Form: compound = O=C(NCCCO)c1cc(-c2cc[nH]n2)n2ccccc12 ; cytotoxicity at 70.5 h = -102

Form: compound = Cc1cccc(CN2C[C@@H]3CN(C4CCOCC4)C[C@@H]3C2=O)c1 ; cytotoxicity at 70.5 h = -4.96

Form: compound = CCOc1ncccc1C(=O)N1CCCC1c1c(C)nn(C)c1Cl (configuration not stated) ; cytotoxicity at 70.5 h = 11.9

Form: compound = Cc1noc([C@H]2C[C@@H]3CCN(CC4CCOCC4)C[C@H]3O2)n1 ; cytotoxicity at 70.5 h = -1.09

====

Assay Remarks: Human HepG2 cell viability assay in 384 well format
Assay type: toxicity, cell-based
Parameters: dose 125 nL, time 70.5 hour; concentration not given beside the values
Conditions: HepG2 cells, read-out: Inhibition
Readout Kind: cytotoxicity at 70.5 h

The cases that follow already have their cytotoxicity at 70.5 h on record.
Compound | Readout Kind | Experimental Result
Cc1nc(CN(C)C2CCN(CCC(=O)N3CCOCC3)C2)no1 (centres undefined) | cytotoxicity at 70.5 h | 15.9%
CC(=O)c1ccc(N2CCC3(CCC(=O)N(CCCO)C3)CC2)nc1 | cytotoxicity at 70.5 h | 3.25%
CC1CCCCN1C(=O)CCn1cnc2sccc2c1=O (centres undefined) | cytotoxicity at 70.5 h | -5.84%

Form: compound = Cc1nccn1CCCn1cncc1-c1ccc2c(c1)CC(C)N2C (centres undefined) ; cytotoxicity at 70.5 h = 3.68%
